# Tested on: Staphylococcus aureus
# assayNotes: Antibacterial activity against Staphylococcus aureus ATCC 13709 in cation adjusted Mueller-Hinton broth by […] assay in presence of 50% rat serum
# Format: functional
recordedMetric: MIC
Form entry: enter the amount, then its unit.

QUERY: Quick check: MIC of `CC(C)C[C@H](C(=O)N[C@H]1C(=O)N[C@@H](CC(N)=O)C(=O)N[C@H]2C(=O)N[C@H]3C(=O)N[C@H](C(=O)N[C@H](C(=O)O)c4cc(O)cc(O)c4-c4cc3ccc4O)[C@H](O[C@H]3C[C@](C)(N)[C@@H](O)[C@H](C)O3)c3cc(Cl)c(c(Cl)c3)Oc3cc2cc(c3O[C@H]2O[C@@H](CO)[C@@H](O)[C@H](O)[C@H]2O[C@@H]2C[C@@](C)(NCc3ccc(-c4ccc(Cl)cc4)cc3)[C@@H](O)[C@@H](C)O2)Oc2ccc(cc2Cl)[C@H]1O)N(C)C(=O)OCOC(=O)CCCC(P(=O)(O)O)P(=O)(O)O` ?
RESULT: 32 µg/mL
